Value source: patent US9062066B2

// inhibition at 1 µM lookup, one value per entry
# tgt: Lyn tyrosine kinase (Homo sapiens (Human), UniProt P07948)
# Sequence (P07948 whole entry): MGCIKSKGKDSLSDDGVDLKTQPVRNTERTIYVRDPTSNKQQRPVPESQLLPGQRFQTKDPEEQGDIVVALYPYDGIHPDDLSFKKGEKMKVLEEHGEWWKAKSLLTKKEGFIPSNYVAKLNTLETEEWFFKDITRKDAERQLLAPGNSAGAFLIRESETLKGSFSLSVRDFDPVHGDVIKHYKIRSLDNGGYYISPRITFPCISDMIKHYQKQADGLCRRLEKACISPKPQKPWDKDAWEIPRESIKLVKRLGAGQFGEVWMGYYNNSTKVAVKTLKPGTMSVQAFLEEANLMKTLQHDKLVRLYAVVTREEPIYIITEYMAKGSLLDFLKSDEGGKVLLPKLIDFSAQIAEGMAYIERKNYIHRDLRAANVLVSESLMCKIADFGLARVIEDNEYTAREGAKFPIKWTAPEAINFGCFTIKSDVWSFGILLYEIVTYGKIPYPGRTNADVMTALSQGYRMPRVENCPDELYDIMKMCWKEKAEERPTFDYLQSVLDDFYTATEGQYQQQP
# experiment-description: in vitro Lyn tyrosine kinase inhibition
# Assay type: biochemical
# condition-label: 1 uM compound; read-out: % inhibition against Lyn

molecule	inhibition at 1 µM
CC(C)CNCc1cccc(-c2cc3ncnc(Nc4cccc(O)c4)c3s2)c1.Cl	> 80%

Notebook entry, Lyn tyrosine kinase (Homo sapiens (Human), UniProt P07948) assay: inhibition at 1 µM of Oc1cccc(Nc2ncnc3cc(-c4ccc(CNC5CC5)cc4)sc23)c1 = ?
> 80%

COc1ccc(-c2cc3ncnc(Nc4cccc(O)c4)c3s2)cc1 ?
> 60%

// same read-out, input: CCNCc1csc(-c2cc3ncnc(Nc4cccc(O)c4)c3s2)c1
> 70%

Try this molecule too: Oc1cccc(Nc2ccnc3cc(-c4cccc(CN5CCCCC5)c4)sc23)c1
> 70%

Now consider CC(NC(=O)c1ccc(-c2cc3ncnc(Nc4cccc(O)c4)c3s2)cc1)C(=O)O (centres unmarked) .
> 30%

What about C[C@@H]1CCC[C@H](C)N1Cc1ccc(-c2cc3ncnc(Nc4cccc(O)c4)c3s2)cc1.Cl ?
> 50%

Same for Oc1cccc(Nc2ncnc3cc(-c4ccc(CN5CCNCC5)o4)sc23)c1
> 70%

Same read-out for Oc1cccc(Nc2ncnc3cc(-c4ccc(CN5CCNCC5)cc4)sc23)c1 ?
> 60%

And COC[C@@H]1CCCN1C(=O)c1cc2nccc(Nc3ccc4c(c3)cc(C)n4C(=O)NC3CC3)c2s1 [Control compound 2, reference compound] ?
< 20%

Next entry: Oc1cccc(Nc2ncnc3cc(-c4cc(CN5CCOCC5)cs4)sc23)c1
> 50%
